- measurement-protocol: Intranasal PK profiles of conjugated oxymorphone in rats (released oxymorphone in plasma by LC-MS/MS)
- Type: in vivo
- test-parameters: 0.2 mg/kg oxymorphone equivalent, relative to the OM control
Rule: yes (1) for %-Cmax not less than 40%, no (0) for anything less.

Reference set, count: 4
>>> cat("CN1CC[C@]23c4c5ccc(O)c4O[C@H]2C(OC(=O)c2cc(-c4ccc(F)cc4F)ccc2O)=CC[C@@]3(O)[C@H]1C5")
"no (0)"
>>> cat("COc1ccc(C(=O)OC2=CCC3(O)C4Cc5ccc(OC(=O)c6ccc(OC)cc6)c6c5C3(CCN4C)C2O6)cc1 (stereo not drawn)")
"no (0)"
>>> cat("COc1ccc(C(=O)Oc2ccc3c4c2O[C@H]2C(=O)CC[C@@]5(O)[C@@H](C3)N(C)CC[C@]425)cc1")
"yes (1)"
>>> cat("CN1CC[C@]23c4c5ccc(O)c4O[C@H]2C(OC(=O)c2ccccc2)=CC[C@@]3(O)[C@H]1C5 [Conjugate 6-Bz-OM]")
"no (0)"

Please find the next molecule below.
Check if %-Cmax >= 40% (inclusive). Item: CN1CC[C@]23c4c5ccc(OC(=O)c6ccccc6O)c4O[C@H]2C(=O)CC[C@@]3(O)[C@H]1C5
yes (1)
